- assayed.system: T1, hPD-1-his (human, UniProt Q15116 25-167)
- T1 construct: domain: IgV domain; monomer in solution; biotin-labelled where captured by streptavidin; also called biotin-hPD-1-his
- T1 sequence (Q15116 other isoform, or with tags, fused parts or gaps limits assumed): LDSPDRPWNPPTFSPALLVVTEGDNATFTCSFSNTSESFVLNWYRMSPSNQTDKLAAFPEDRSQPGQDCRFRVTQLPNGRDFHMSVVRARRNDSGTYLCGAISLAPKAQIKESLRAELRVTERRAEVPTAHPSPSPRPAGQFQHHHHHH
- protocol.summary: ELISA, PD-1-his on anti-his

{"columns": ["binder", "units.symbol", "OD at 10 nM"],
 "data": [
  ["32D2 (antibody, V domains shown) VH: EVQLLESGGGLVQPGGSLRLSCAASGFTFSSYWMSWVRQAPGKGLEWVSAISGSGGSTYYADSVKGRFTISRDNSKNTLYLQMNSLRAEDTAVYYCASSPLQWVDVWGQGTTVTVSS VL: DIQMTQSPSSLSASVGDRVTITCRASQGISRWLAWYQQKPGKAPKLLIYEASTLQSGVPSRFSGSGSGTDFTLTISSLQPEDFATYYCQQAYSFPFTFGQGTKVDIK", "OD", 0.591],
  ["38A6 (antibody, V domains shown, also called 780_46) VH: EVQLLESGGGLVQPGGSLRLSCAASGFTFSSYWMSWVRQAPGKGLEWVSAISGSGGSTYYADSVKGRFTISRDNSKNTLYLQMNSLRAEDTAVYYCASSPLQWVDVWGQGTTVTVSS VL: DIQMTQSPSSLSASVGDRVTITCRASQDISRWLGWYQQKPGKAPKLLIYAASTLQSGVPSRFSGSGSGTDFTLTISSLQPEDFATYYCQQANSFPFTFGPGTKLEIK", "OD", 0.576]
]}
